Hi there, I'd appreciate the recorded Relative affinity for every entry that follows.
testedSystem: T1, human MASP-2cf CCP1-CCP2-SP (human, UniProt O00187 298-686, limits assumed)
T1 construct: domain: CCP1-CCP2-SP; also called human MASP-2 catalytic fragment
T1 sequence (O00187 298-686 limits assumed): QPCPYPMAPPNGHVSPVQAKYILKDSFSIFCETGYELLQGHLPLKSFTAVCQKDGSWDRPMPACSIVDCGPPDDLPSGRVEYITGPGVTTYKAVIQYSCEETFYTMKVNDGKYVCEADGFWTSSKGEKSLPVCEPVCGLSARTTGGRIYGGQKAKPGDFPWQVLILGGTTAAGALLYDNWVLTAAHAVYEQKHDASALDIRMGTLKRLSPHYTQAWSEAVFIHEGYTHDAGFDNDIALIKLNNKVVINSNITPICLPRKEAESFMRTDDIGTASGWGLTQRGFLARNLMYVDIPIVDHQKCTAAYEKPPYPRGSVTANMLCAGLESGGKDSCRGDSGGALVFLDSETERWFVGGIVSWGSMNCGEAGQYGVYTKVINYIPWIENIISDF
measurementProtocol: SPR, target immobilised
Where no end group is shown, it is not given here.
Give me the value, and tack the unit on after it.

[ask] Indicate the recorded Relative affinity value for this binder: EVO2 (designed binder, not fully specified; ends and bridges not checked, Modified Kunitz domain TFPI-D2 of human TFPI-1; recombinant from E. coli, freed from a His6-S100A4 fusion by TEV protease; also called TFMI-2b) KPDFCFLEEDPGPCRAVKRRYFYNNQTKQCERFKYGGCLGNMNNFETLEECKNICEDG
[reply] 1 fold vs EVO2

[ask] Specify measured Relative affinity for EVO211 (designed binder, not fully specified; ends and bridges not checked, Modified TFPI-D2 Kunitz domain; made as m1) KPDFCFLENDPGWCRALKRRYFYNNQTKQCERFGYGGCLGNMNNFVTLEECKNICEDG .
[reply] 41.6 fold vs EVO2

The values you see were collected from patent US20260098080A1.
